Tested on: SK-OV-3
Assay: NCI tumour cell line growth inhibition, 48 h
Activity calls are given as the source filed them. Cut-off read from the data, not from the text of the source: active = GI50 up to about 1.1 µM and inactive = higher.
Use one of these outcomes when replying: True (active), False (inactive)

Some solved entries appear below for comparison.
Compound	Group
NC(Cc1cc(I)c(O)c(I)c1)C(=O)O (stereo not given)	False
O=C(OCC12CC3CC(CC(C3)C1)C2)c1ccc(NCc2cc(O)ccc2O)cc1	False
O=C1c2ccccc2C(=O)c2sc(Nc3ccc([N+](=O)[O-])cc3)nc21	False
NC(CCCC(N)P(=O)(O)c1ccccc1)P(=O)(O)c1ccccc1 (stereo not given)	False

Okay, next one:
Q: Tell me the assay call for COC1/C=C(C)/C=C/C(C)/C=C/C(=O)OC(/C(C)=C/C=C(\C)CNC(=O)[C@H](CO)NC=O)C(C)/C=C/C=C/C(OC)CC/C=C(C)/C=C/C1 (stereo not given in full) please.
Ans: True

###

System: NCI-H460
Experiment: NCI tumour cell line growth inhibition, 48 h
Activity calls are given as the source filed them. Rule as the data show it: active = GI50 up to about 1.1 µM and inactive = higher.
Use one of these outcomes when replying: active, inactive

Some solved entries appear below for comparison.
Compound	Group
O=C(O)CNC(=O)c1cccc2c(=O)c3ccccc3[nH]c12	inactive
CCC1C(=O)C[C@H]2[C@@H]3C(O)CC4=CC(=O)CC[C@]4(C)[C@H]3CC[C@]12C (stereo partly specified)	inactive
CC(=O)Nc1cccc2[nH]c3ccccc3c(=O)c12	inactive
CC(C)c1nccn1Cc1ccc(Cl)cc1Cl	inactive
Cc1c2n(c(=O)[nH]c1=O)C1OC(CO)C(O2)C1O (stereo unspecified)	inactive

Q: Tell me the assay call for COc1ccc(OC)c(NS(=O)(=O)c2ccc3nc(C)n(NS(=O)(=O)c4cc(OC)ccc4OC)c(=O)c3c2)c1 please.
Ans: inactive

Q: Proceed to CCCNC(=O)C(C)C1CCC2(C)C=CC(=O)C(C)=C2C1O (stereo unspecified)
Ans: inactive

###

System: CCRF-CEM
Assay: NCI tumour cell line growth inhibition, 48 h
The source made the active and inactive calls. Cut-off read from the data, not from the text of the source: active = GI50 up to about 1.1 µM and inactive = higher.
Measurement Label: GI50

As a guide, the following entries are already answered.
Molecule	Target Entity	Result
COc1cc(/C=C\c2cccnc2)cc(OC)c1OC	CCRF-CEM	25.7 µM (inactive)
CC(=O)OC(C)C(=O)C1c2cccc(O)c2C(=O)c2c(O)cc(C)cc21 (stereo not drawn)	CCRF-CEM	0.711 µM (active)

Q: So what's the measured GI50 for this one? CCC(CC)NC1=C(NC(C)=O)C(=O)c2ccccc2C1=O
Ans: > 50 µM (inactive)

Q: Proceed to CC(C)/C(=N\[N+](C)(C)C)c1ccccc1
Ans: > 100 µM (inactive)

Q: Proceed to CC(C)=CCc1c(O)c(CC=C(C)C)c2oc(-c3ccc(O)cc3O)c(CC=C(C)C)c(=O)c2c1O
Ans: 2.1 µM (inactive)

Q: Proceed to CCCCCC[N+](C)(C)Cc1ccc(C[N+](C)(C)CCCCCC)cc1
Ans: 2.73 µM (inactive)

Q: Proceed to COc1cccc(C2c3cc4c(cc3OC(NNS(=O)(=O)c3ccc(C)cc3)C2C)OCO4)c1OC (stereo not drawn)
Ans: 2.03 µM (inactive)

Q: Proceed to O=C1OC(c2ccccc2Br)=N/C1=C/c1ccccc1
Ans: 35 µM (inactive)

Q: Proceed to CC(=O)C1CC(C)=CCC12C(=O)Nc1ccccc12 (stereo not drawn)
Ans: > 100 µM (inactive)

Q: Proceed to CCn1c(SCC(=O)N/N=C/c2ccccc2)nc2ccccc2c1=O
Ans: 9.89 µM (inactive)
